test system: recombinant human cytomegalovirus (HCMV); assay: microbe, parasite or virus in culture; type: cell-based; conditions: CMV assay, Table 2; read-out: Antiviral Activity
pIC50: −log10 of the molar value.

| STRUCTURE_SMILES_STRING | pIC50 |
| --- | --- |
| Cc1ccc(CNc2nc(C)c([N+](=O)[O-])c(-n3ccnc3C)n2)cc1 | < 6.30 |
| Cc1nc(NCc2ccccc2Cl)nc(-n2ccnc2C)c1[N+](=O)[O-] | > 7.00 |
| Cc1nc(NCc2ccc(Cl)c(Cl)c2)nc(-n2ccnc2C)c1[N+](=O)[O-] | 6.30 to 7.00 |
| Cc1nc(NCc2cc(F)ccc2F)nc(-n2ccnc2C)c1[N+](=O)[O-] | 6.30 to 7.00 |
| Cc1nc(NCc2ccc(F)cc2C(F)(F)F)nc(-n2ccnc2C)c1[N+](=O)[O-] | 6.30 to 7.00 |

###

tested on: recombinant human cytomegalovirus (HCMV); experiment: microbe, parasite or virus in culture; format: cell-based; settings: CMV assay, Table 2; read-out: Antiviral Activity
pIC50: −log10 of the molar value.
Below, each of the compounds is paired with its reported pIC50 value.
MEASUREMENT_NAME: pIC50

| STRUCTURE_SMILES_STRING | SYSTEM_TESTED | REPORTED |
| --- | --- | --- |
| Cc1nc(NCc2cccc(Cl)c2)nc(-n2ccnc2C)c1[N+](=O)[O-] | recombinant human cytomegalovirus (HCMV) | > 7.00 |
| Cc1nc(NCc2cc(F)cc(F)c2)nc(-n2ccnc2)c1[N+](=O)[O-] | recombinant human cytomegalovirus (HCMV) | < 6.30 |
| Cc1ccccc1CNc1nc(C)c([N+](=O)[O-])c(-n2ccnc2C)n1 | recombinant human cytomegalovirus (HCMV) | 6.30 to 7.00 |
| Cc1nc(NCc2cc(F)c(F)c(F)c2)nc(-n2ccnc2C)c1[N+](=O)[O-] | recombinant human cytomegalovirus (HCMV) | 6.30 to 7.00 |
| Cc1nc(NCc2ccc(Cl)cc2)nc(-n2ccnc2C)c1[N+](=O)[O-] | recombinant human cytomegalovirus (HCMV) | 6.30 to 7.00 |

###

tested on: recombinant human cytomegalovirus (HCMV); assay: microbe, parasite or virus in culture; format: cell-based; details: CMV assay, Table 2; read-out: Antiviral Activity
IC50 for assorted molecules
MEASUREMENT_NAME: IC50

| STRUCTURE_SMILES_STRING | MEASUREMENT_NAME | REPORTED |
| --- | --- | --- |
| Cc1nc(NCc2cc(F)cc(F)c2)nc(-n2ccnc2C)c1[N+](=O)[O-] | IC50 | < 100 nM |
| Cc1nc(NCc2ccc(F)c(F)c2)nc(-n2ccnc2C)c1[N+](=O)[O-] | IC50 | 100 to 500 nM |
| COc1ccc(CNc2nc(C)c([N+](=O)[O-])c(-n3ccnc3C)n2)cc1OC | IC50 | 100 to 500 nM |
| Cc1nc(NCc2cc(Cl)cc(Cl)c2)nc(-n2ccnc2C)c1[N+](=O)[O-] | IC50 | 100 to 500 nM |

###

MEASUREMENT_NAME: melting point

| COMPOUND | REPORTED |
| --- | --- |
| Cc1nc(NC2Cc3ccccc3C2)nc(-n2ccnc2C)c1[N+](=O)[O-] | 203 to 204 °C |
| Cc1nc(NC2Cc3ccccc3C2)nc(-n2ccnc2C)c1[N+](=O)[O-].Cl | 184 to 185 °C |
| Cc1nc(NC2CCc3c(F)cc(F)cc32)nc(-n2ccnc2C)c1[N+](=O)[O-] (stereo not shown) | 164 to 165 °C |
| CCc1nccn1-c1nc(NC2CCc3c(F)cc(F)cc32)nc(C)c1[N+](=O)[O-] (stereo not shown) | 88 to 89 °C |
| CC[C@H]1CCCC[C@H]1Nc1nc(C)c([N+](=O)[O-])c(-n2ccnc2)n1 (relative stereo) | 123 to 124 °C |
| Cc1nc(NC2CCc3c(F)cc(F)cc32)nc(-n2ccnc2)c1[N+](=O)[O-] (stereo not shown) | 175 to 176 °C |
| Cc1nc(NC2Cc3ccccc3C2)nc(-n2ccnc2)c1[N+](=O)[O-] | 177 to 178 °C |

###

Test system: recombinant human cytomegalovirus (HCMV)
Experiment: microbe, parasite or virus in culture
Format: cell-based
Details: CMV assay, Table 4; read-out: Antiviral Activity
Protocol: Certain preferred compounds and compositions are capable of specifically inhibiting or suppressing cytomegalovirus infection. […] Compounds that were evaluated for anti-HCMV activity were added to the infected cells 1 hour later. The level of luciferase expression was measured 24 hours after treatment with the test compounds. […] As an additional control, the cytotoxicity of test compounds on untreated HFF cells was also evaluated in cultured cell growth experiments.
IC50: recorded values

| COMPOUND | IC50 |
| --- | --- |
| Cc1nc(NC2CCc3cc(F)c(F)cc32)nc(-n2ccnc2C)c1[N+](=O)[O-] (stereo not shown) | 100 to 500 nM |
| CCc1nccn1-c1nc(NC2CCc3c(F)cccc32)nc(C)c1[N+](=O)[O-] (stereo not shown) | 100 to 500 nM |
| Cc1nc(NC2CCCc3ccccc32)nc(-n2ccnc2C)c1[N+](=O)[O-] (stereo not shown) | 100 to 500 nM |
| Cc1nc(NC2CCc3c(F)cccc32)nc(-n2ccnc2C)c1[N+](=O)[O-] (stereo not shown) | 100 to 500 nM |
| Cc1nc(NC2CCc3c(F)cccc32)nc(-n2ccnc2)c1[N+](=O)[O-] (stereo not shown) | 100 to 500 nM |
| Cc1nc(NC2CCc3ccccc32)nc(-n2ccnc2)c1[N+](=O)[O-] (stereo not shown) | < 100 nM |
| Cc1nc(NC2CCc3c(Cl)cccc32)nc(-n2ccnc2C)c1[N+](=O)[O-] (stereo not shown) | > 500 nM |
| Cc1nc(NC2CCc3ccc(Cl)cc32)nc(-n2ccnc2C)c1[N+](=O)[O-] (stereo not shown) | 100 to 500 nM |
| CCc1nccn1-c1nc(NC2CCc3cc(F)c(F)cc32)nc(C)c1[N+](=O)[O-] (stereo not shown) | 100 to 500 nM |
| Cc1nc(NC2CCc3ccccc32)nc(-n2ccnc2C)c1[N+](=O)[O-] (stereo not shown) | < 100 nM |
| Cc1nc(NC2CCc3cc(F)ccc32)nc(-n2ccnc2)c1[N+](=O)[O-] (stereo not shown) | < 100 nM |
| CCc1nccn1-c1nc(NC2CCc3c(F)ccc(F)c32)nc(C)c1[N+](=O)[O-] (stereo not shown) | < 100 nM |
| CCc1nccn1-c1nc(NC2CCc3ccccc32)nc(C)c1[N+](=O)[O-] (stereo not shown) | 100 to 500 nM |
| Cc1nc(NC2COc3ccccc32)nc(-n2ccnc2C)c1[N+](=O)[O-] (stereo not shown) | 100 to 500 nM |
| Cc1nc(NC2CCc3c(F)ccc(F)c32)nc(-n2ccnc2)c1[N+](=O)[O-] (stereo not shown) | 100 to 500 nM |
| Cc1nc(NC2CCc3cc(F)ccc32)nc(-n2ccnc2C)c1[N+](=O)[O-] (stereo not shown) | 100 to 500 nM |
| COC1c2ccccc2CC1Nc1nc(C)c([N+](=O)[O-])c(-n2ccnc2)n1 (stereo not shown) | > 500 nM |
| COC1c2ccccc2CC1Nc1nc(C)c([N+](=O)[O-])c(-n2ccnc2C)n1 (stereo not shown) | > 500 nM |
| Cc1nc(NC2Cc3ccccc3C2(C)C)nc(-n2ccnc2C)c1[N+](=O)[O-] (stereo not shown) | 100 to 500 nM |
| Cc1nc(NC2CCc3cc(F)c(F)cc32)nc(-n2ccnc2)c1[N+](=O)[O-] (stereo not shown) | 100 to 500 nM |
| Cc1nc(NC2CCc3cc(Br)ccc32)nc(-n2ccnc2C)c1[N+](=O)[O-] (stereo not shown) | 100 to 500 nM |
| Cc1nc(NC2CCc3c(F)ccc(F)c32)nc(-n2ccnc2C)c1[N+](=O)[O-] (stereo not shown) | < 100 nM |
| Cc1nc(NC2Cc3ccccc3C2(C)C)nc(-n2ccnc2)c1[N+](=O)[O-] (stereo not shown) | > 500 nM |
| Cc1nc(N(C)C2CCc3ccccc32)nc(-n2ccnc2C)c1[N+](=O)[O-] (stereo not shown) | 100 to 500 nM |
| CCc1nccn1-c1nc(NC2Cc3ccccc3C2)nc(C)c1[N+](=O)[O-] | > 500 nM |

###

tested on: recombinant human cytomegalovirus (HCMV); experiment: microbe, parasite or virus in culture; assay type: cell-based; details: Human betaherpesvirus 5, HFF, 24 h

| STRUCTURE_SMILES_STRING | IC50 (nM) |
| --- | --- |
| Cc1nc(N2CCN(Cc3ccccc3)CC2)nc(-n2ccnc2C)c1[N+](=O)[O-] | 100 |
